Tested on: SNB-19 CNS
Assay: NCI-60 one-dose screen, 48 h
Conditions: 10 µM unless noted
Experimental: Growth inhibition of the SNB-19 human tumor cell line is measured as a screen for anti-cancer activity. Cells are grown in 96 well plates and exposed to the test compound for 48 hours. Compounds are tested at a single concentration, which is 10^-5 M for most compounds. The reported endpoint is percent growth (GI% or GIPRCNT), where numbers from 0 - 100% represent growth inhibition, and numbers from -100% - 0 represent cell death. For example, a value of 40 represents 60% growth inhibition. […]
The panel holds about 83,000 compounds, 20% with a hit somewhere; the sample as a whole holds those more often. Activity calls are given as the source filed them. How the source made its calls: active means growth percent below 10; inactive means the rest.
Output constraint: value belongs to Yes for active, No for inactive

input: Record request — test call for CC1(C)CCC(S(=O)(=O)c2ccc3c(c2)/C(=N\O)c2cc(S(=O)(=O)N4CCC(O)(c5cccc(C(F)(F)F)c5)CC4)ccc2-3)CC1
output: Yes

input: Record request — test call for COc1ccc2cc(-c3ccc(NC(C)=O)c(=O)o3)ccc2c1
output: No

input: Record request — test call for O=C1C(Cl)=C(Nc2ccc(O)cc2)C(=O)N1Cc1ccc(Cl)cc1
output: No

input: Record request — test call for COc1cc(-c2csc(NC(=O)c3cc(-n4cnc(C)c4)cc(C(F)(F)F)c3)n2)cc(OC)c1OC
output: No

input: Record request — test call for O=C(Nn1c2c(sc1=NCc1ccccc1)C(=O)c1ccccc1C2=O)c1cc2ccc1CCc1ccc(cc1)CC2
output: No

input: Record request — test call for O=C(/C=C/c1cn(-c2ccccc2)nc1-c1ccc([N+](=O)[O-])cc1)c1ccc(Cl)cc1
output: No

input: Record request — test call for COc1ccc(NC(=O)c2sc3nc(C)c(C(=O)/C=C/c4cccc(OC)c4)cc3c2N)cc1
output: Yes

input: Record request — test call for OB(O)c1cccc(-c2nc3ccc4[nH]ncc4c3c3c2CCCC3)c1
output: No

input: Record request — test call for C[C@]12C=CC(=O)C=C1CCC1C2[C@@H](O)C[C@@]2(C)C1CC[C@]2(O)C(=O)COC(=O)CCC(=O)O (some centres undefined)
output: No

input: Record request — test call for CCOc1nc(-c2ccccc2)cc2c(O)c(C(=O)NN)[nH]c(=O)c12
output: No

input: Record request — test call for N#Cc1cccc(NC(=O)c2oc3ccccc3c2-c2cnn(-c3ccccc3)c2)c1
output: No

input: Record request — test call for C[C@H](NC(=O)[C@@H](C)N)[C@H](Oc1ccc2c(cnn2-c2ccc(F)cc2)c1)c1ccc2c(c1)OCCO2
output: No

input: Record request — test call for NC(=O)CCC(C(=O)O)N1C(=O)c2ccc(O)cc2C1=O (centres undefined)
output: No

input: Record request — test call for CS(=O)(=O)C1=CN(CCO)C(=O)N2CCCN=C12
output: No

input: Record request — test call for Cc1ccc2c3c(c(=O)[nH]c2c1)C1(C(C#N)=C(N)O3)c2cc(Br)ccc2-c2ccc(Br)cc21
output: Yes

input: Record request — test call for COc1ccc(/C=N/NC(=O)CCN2c3ccccc3Sc3ccccc32)cc1
output: No

input: Record request — test call for CN(C)CC(=O)Nc1ccc2ncnc(Nc3ccc(Oc4cccc(C(F)(F)F)c4)c(Cl)c3)c2c1
output: No

input: Record request — test call for CCCCCCNC(=O)Oc1ccc(/C(=C(/C)Cc2ccc(OC)cc2)c2ccc(OCCCN(C)C)cc2)cc1
output: No

input: Record request — test call for CC(C)c1ccc(NC(=O)Nc2ccc(NC(=O)CCCC(=O)NOCc3ccccc3)cc2)cc1
output: No

input: Record request — test call for Cc1ccc(-n2c(=S)[nH]c3sc4c(c3c2=O)CCC(=O)C4)cc1
output: No

input: Record request — test call for COc1ccc2nc3ccc(OC)cc3c(SCCCN)c2c1
output: No

input: Record request — test call for c1ccc(CNc2c3ccccc3nc3ccccc23)cc1
output: No

input: Record request — test call for C=C1C(=O)O[C@H]2[C@H]1CC/C(COC(=O)NCc1cc[nH]c1)=C\CC[C@@]1(C)O[C@@H]21
output: No

input: Record request — test call for O=C(COc1ccc(-c2nc3ccccc3[nH]2)cc1)N=Nc1c(O)[nH]c2ccc(Cl)cc12
output: No

input: Record request — test call for O=C1c2cccc(NCCN=Cc3cc(O)ccc3O)c2C(=O)c2c(NCCN=Cc3cc(O)ccc3O)cccc21
output: Yes

input: Record request — test call for O=C(CCCCCCN1CC(=O)N2[C@H](c3cc(Br)cs3)c3[nH]c4ccccc4c3C[C@H]2C1=O)NO
output: No

input: Record request — test call for O=C1N(Cc2ccccc2Cl)c2ccccc2C12NN=C(c1cccc(Cl)c1)S2 (centres undefined)
output: No

input: Record request — test call for COc1ccc(-c2nc3c(c(-c4ccccc4)nn3-c3ccccc3)c(-c3ccc(N4CCN(C)CC4)cc3)c2C#N)cc1
output: No

input: Record request — test call for CCOC(=O)c1[nH]c(=O)c2c(C)nc(-c3ccccc3)cc2c1O
output: No
